The values you see were collected from PubChem BioAssay (NCI).

# Tested on: UACC-62 melanoma
# test_protocol: NCI-60 one-dose screen, 48 h (100 = growth as untreated, 0 = no growth, -100 = all killed)
# measurement_setup: 10 µM unless noted
This is part of a sample that, as a whole, favours compounds with a hit. Of some 83,000 tested, about 20% had one in any assay.
growth values by entry

compound | growth / %
Cc1cc(-c2ccc(N=Nc3ccc4c(S(=O)(=O)O)cc(S(=O)(=O)O)c(N)c4c3O)c(C)c2)ccc1N=Nc1ccc2c(S(=O)(=O)O)cc(S(=O)(=O)O)c(N)c2c1O | 77.3
c1ccc2c(c1)OC1OC2Oc2ccccc21 | 92.5
O=C(/C=C/c1ccccc1)c1ccccc1 | 102
CC(=O)OC(C)C(=O)NCC(C)O (stereo unspecified) | 122
c1ccc(-c2nc3ccccc3s2)cc1 | 75.7
OC1COC(OCc2ccccc2)C(O)C1O (stereo unspecified) | 106
c1ccc(CNCCNCc2ccccc2)cc1 | 105
CC(C)(O)C(=O)O | 103
Cc1ccc(S(=O)(=O)c2ccccc2)cc1 | 63.4
Nc1cc(N)c(N)cc1N | -40.3
COc1ccc(Nc2ccc3ccccc3c2)cc1 | 62.1
CC(=O)NCC(=O)c1ccc([N+](=O)[O-])cc1 | 101
CC(=O)Nc1ccc(S(N)(=O)=O)cc1 | 99.8
N#CC(C#N)N=Nc1cc(Cl)ccc1Cl | 99.1
Cn1cnc([N+](=O)[O-])c1Sc1ncn[nH]1 | 108
CCCCCCCCCCCCCCCc1ccc(N)c(OC2OC(CO)C(O)C(O)C2O)c1 (stereo unspecified) | 76.3
O=C1CSC2=NCCN12 | 87.1
CC1(C)COC(=S)N1 | 93
O=C1OC(c2ccccc2)=N/C1=C\c1ccccc1 | 101
COc1cc(C(O)C2C(=O)OCC2C2(c3ccc4c(c3)OCO4)SCCCS2)cc(OC)c1OC (stereo unspecified) | 87.5
CCCCOC(=O)/C=C\C(=O)NC(N)=O | 79.1

----------
# Test system: MALME-3M melanoma
# test_protocol: NCI-60 one-dose screen, 48 h (100 = growth as untreated, 0 = no growth, -100 = all killed)
# measurement_setup: 10 µM unless noted
Compounds without any hit were thinned out: in the full panel of roughly 83,000, 20% have a hit. Where a SMILES comes first, the peptide text is derived from it.

compound | endpoint_unit | growth
O=c1n(CC2CO2)c(=O)n(CC2CO2)c(=O)n1CC1CO1 (stereo unspecified) | % | 70.7
CC(C)(O)C(=O)O | % | 88.4
O=C1OC(C(O)C(O)CO)C(O)=C1O (stereo unspecified) | % | 94.2
Cc1cc(-c2cc(C)c(O)c(C)c2)cc(C)c1O | % | 75
CC(=O)OC(C)C(=O)NCC(C)O (stereo unspecified) | % | 108
CCOC(=O)c1c(C)cc(=O)oc1C | % | 87.7
C#CCOC(=O)Nc1ccccc1 | % | 115
N#CC(C#N)N=Nc1ccc(Cl)cc1 | % | 15.6
c1ccc2c(c1)OC1OC2Oc2ccccc21 | % | 113
O=CN1CCCCC1 | % | 103
c1ccc(CNCCNCc2ccccc2)cc1 | % | 109
COc1ccc(N/C=C/C2=[N+](C)c3ccccc3C2(C)C)c(OC)c1 | % | 85.5
Cl | % | 116
O=C1OC(c2ccccc2)=N/C1=C\c1ccccc1 | % | 86.4
Nc1nc(N)c2[nH]cnc2n1 | % | 125
Cc1ccc(S(=O)(=O)c2ccccc2)cc1 | % | 66.6
CC(=O)Nc1ccc(S(N)(=O)=O)cc1 | % | 109
O=C(O)CCCl | % | 115
CC1(C)COC(=S)N1 | % | 104
Nc1cc(N)c(N)cc1N | % | 62
COc1ccc2cc1Oc1ccc(cc1)C[C@H]1c3cc(c(OC)cc3CCN1C)Oc1c(OC)c(OC)cc3c1[C@H](C2)N(C)CC3 | % | 16.3
CC1=C/C(O)CC(=O)Cc2nc(co2)C(=O)N2CCC=C2C(=O)OC(C(C)C)C(C)/C=C\C(=O)NC/C=C\1 (stereo unspecified) | % | 125
NC(Cc1ccccc1)C(=O)NC(Cc1ccccc1)C(=O)O (stereo not drawn) (H-Phe-Phe-OH; configuration not given here) | % | 99.4
CC(C)C(C)(C)c1ccc(O)cc1 | % | 107
CC(C)NC(=O)N/C=C(\C#N)C(N)=O | % | 89.3
CC(=O)OCC1OC(OC(C)=O)C(OC(C)=O)C(OC(C)=O)C1OC(C)=O (stereo unspecified) | % | 99.8
